System: barley, winter (winter barley, Hordeum vulgare)
test_summary: Test D controlled growth environment herbicide test, pre- and postemergence
Format: in vivo
reported_conditions: Postemergence, 125 g ai/ha; visual rating on scale 0 (no effect) to 100 (complete control), 14 to 21 d
Examples of compounds with documented Plant response rating, Barley, Winter follow.

{"columns": ["item_smiles", "Plant response rating, Barley, Winter"],
 "data": [
  ["CC(=O)Oc1c(C)nn(C)c(=O)c1-c1c(C)cc(C)c2ccccc12", 10],
  ["CCC(=O)Oc1c(C)nn(C)c(=O)c1-c1c(C)sc2ccc(Cl)cc12", 5],
  ["Cc1ccc2sc(C)c(-c3c(O)c(C)nn(C)c3=O)c2c1", 5],
  ["COc1nn(C)c(=O)c(-c2c(C)ccc3ccccc23)c1OC(=O)OC(C)C", 5],
  ["COc1nn(C)c(=O)c(-c2c(C)ccc3ccccc23)c1O", 5],
  ["C#CCOC(=O)Oc1c(C)nn(C)c(=O)c1-c1c(C)sc2ccc(C)cc12", 5],
  ["Cc1cc(C)c2sc(C)c(-c3c(OC(=O)OC(C)C)c(C)nn(C)c3=O)c2c1", 5],
  ["CCC(=O)Oc1c(C)nn(C)c(=O)c1-c1c(C)sc2c(C)cc(C)cc12", 5],
  ["CCC(=O)Oc1c(C)nn(C)c(=O)c1-c1c(C)sc2ccc(C)cc12", 0],
  ["CCOC(=O)Oc1c(C)nn(C)c(=O)c1-c1c(C)sc2c(C)cc(C)cc12", 0]
]}

====

System: nutsedge, yellow (yellow nutsedge, Cyperus esculentus)
test_summary: Test E greenhouse herbicide test, pre- and postemergence
Format: in vivo
reported_conditions: Preemergence, 250 g ai/ha; visual, scale 0 no effect to 100 complete control
Threshold rule: Plant response rating, Nutsedge, Yellow greater than or equal to 70 is Y; below that, N.

{"columns": ["item_smiles", "class_label"],
 "data": [
  ["CC(=O)Oc1c(C)nn(C)c(=O)c1-c1c(C)sc2c(C)cc(C)cc12", "Y"],
  ["CC(=O)Oc1c(C)nn(C)c(=O)c1-c1c(C)cc(C)c2ccccc12", "Y"],
  ["CC(=O)Oc1c(C)nn(C)c(=O)c1-c1c(C)sc2ccc(C)cc12", "N"],
  ["CCOC(=O)Oc1c(C)nn(C)c(=O)c1-c1c(C)sc2c(C)cc(C)cc12", "Y"]
]}

====

Tested on: waterhemp (common waterhemp, Amaranthus rudis)
test_summary: Test E greenhouse herbicide test, pre- and postemergence
Assay type: in vivo
reported_conditions: 250 g ai/ha, Postemergence; scale 0 to 100 (0 no effect, 100 complete control)
Examples of compounds with documented Plant response rating, Waterhemp follow.

{"columns": ["item_smiles", "Plant response rating, Waterhemp"],
 "data": [
  ["CCOC(=O)Oc1c(C)nn(C)c(=O)c1-c1c(C)sc2ccc(C)cc12", 90],
  ["Cc1cc(C)c2sc(C)c(-c3c(OC(=O)OCCCl)c(C)nn(C)c3=O)c2c1", 90],
  ["CCC(=O)Oc1c(C)nn(C)c(=O)c1-c1c(C)sc2ccc(C)cc12", 90],
  ["Cc1ccc2sc(C)c(-c3c(O)c(C)nn(C)c3=O)c2c1", 100],
  ["CC(=O)Oc1c(C)nn(C)c(=O)c1-c1c(C)cc(C)c2ccccc12", 75],
  ["COc1nn(C)c(=O)c(-c2c(C)sc3ccc(Cl)cc23)c1O", 90]
]}

====

Examples of compounds with documented Wheat plant response rating follow.
Test system: wheat (winter wheat, Triticum aestivum)
test_summary: Test C greenhouse herbicide test, pre- and postemergence
Format: in vivo
reported_conditions: Preemergence, 250 g ai/ha; scale 0 to 100 (0 no effect, 100 complete control)
parameter_measured: Wheat plant response rating

{"columns": ["item_smiles", "test_system", "reading"],
 "data": [
  ["CC(=O)Oc1c(C)nn(C)c(=O)c1-c1c(C)sc2c(C)cc(C)cc12", "wheat (winter wheat, Triticum aestivum)", 10],
  ["CCOC(=O)Oc1c(C)nn(C)c(=O)c1-c1c(C)sc2c(C)cc(C)cc12", "wheat (winter wheat, Triticum aestivum)", 0],
  ["COC(=O)Oc1c(Br)nn(C)c(=O)c1-c1c(C)ccc2ccccc12", "wheat (winter wheat, Triticum aestivum)", 90],
  ["Cc1cc(C)c2sc(C)c(-c3c(OC(=O)OC(C)C)c(C)nn(C)c3=O)c2c1", "wheat (winter wheat, Triticum aestivum)", 0],
  ["CCC(=O)Oc1c(C)nn(C)c(=O)c1-c1c(C)sc2c(C)cc(C)cc12", "wheat (winter wheat, Triticum aestivum)", 10],
  ["CC(=O)Oc1c(C)nn(C)c(=O)c1-c1c(C)cc(C)c2ccccc12", "wheat (winter wheat, Triticum aestivum)", 50],
  ["CCCC(=O)Oc1c(C)nn(C)c(=O)c1-c1c(C)sc2c(C)cc(C)cc12", "wheat (winter wheat, Triticum aestivum)", 0],
  ["Cc1sc2ccc(Cl)cc2c1-c1c(OS(C)(=O)=O)c(Cl)nn(C)c1=O", "wheat (winter wheat, Triticum aestivum)", 35],
  ["CCC(=O)Oc1c(C)nn(C)c(=O)c1-c1c(C)sc2ccc(C)cc12", "wheat (winter wheat, Triticum aestivum)", 5],
  ["Cc1nn(C)c(=O)c(-c2c(C)sc3ccc(Cl)cc23)c1O", "wheat (winter wheat, Triticum aestivum)", 0],
  ["COc1nn(C)c(=O)c(-c2c(C)ccc3ccccc23)c1O", "wheat (winter wheat, Triticum aestivum)", 0]
]}

====

System: bromegrass, downy (downy bromegrass, Bromus tectorum)
test_summary: Test D controlled growth environment herbicide test, pre- and postemergence
Format: in vivo
reported_conditions: Postemergence, 31 g ai/ha; scale 0 to 100 (0 no effect, 100 complete control)
Text: […]
Examples of molecules with documented Bromegrass, Downy plant response rating follow.

{"columns": ["molecule", "Bromegrass, Downy plant response rating"],
 "data": [
  ["Cc1ccc2ccccc2c1-c1c(O)c(C)nn(C)c1=O [Compound 59]", 35],
  ["CC(=O)Oc1c(C)nn(C)c(=O)c1-c1ccc(F)c2ccccc12 [Compound 90]", 20],
  ["Cc1cc(C)c2sc(C)c(-c3c(OC(=O)OCCCl)c(C)nn(C)c3=O)c2c1 [Compound 85]", 30],
  ["CCC(=O)Oc1c(C)nn(C)c(=O)c1-c1c(C)sc2ccc(C)cc12 [Compound 42]", 0],
  ["CC(=O)Oc1c(C)nn(C)c(=O)c1-c1c(C)cc(C)c2ccccc12 [Compound 153]", 25],
  ["CCOC(=O)Oc1c(C)nn(C)c(=O)c1-c1c(C)sc2ccc(C)cc12 [Compound 82]", 55]
]}

====

Examples of molecules with documented Plant response rating, Foxtail, Green follow.
Tested on: foxtail, green (green foxtail, Setaria viridis)
test_summary: Test D controlled growth environment herbicide test, pre- and postemergence
Assay type: in vivo
reported_conditions: Preemergence, 125 g ai/ha; scale 0 to 100 (0 no effect, 100 complete control)
parameter_measured: Plant response rating, Foxtail, Green

{"columns": ["item_smiles", "test_system", "reading"],
 "data": [
  ["C#CCOC(=O)Oc1c(C)nn(C)c(=O)c1-c1c(C)sc2ccc(C)cc12", "foxtail, green (green foxtail, Setaria viridis)", 95],
  ["CCOC(=O)Oc1c(C)nn(C)c(=O)c1-c1c(C)sc2c(C)cc(C)cc12", "foxtail, green (green foxtail, Setaria viridis)", 100],
  ["Cc1ccc2ccccc2c1-c1c(O)c(C)nn(C)c1=O", "foxtail, green (green foxtail, Setaria viridis)", 85],
  ["CCC(=O)Oc1c(C)nn(C)c(=O)c1-c1c(C)sc2c(C)cc(C)cc12", "foxtail, green (green foxtail, Setaria viridis)", 100],
  ["COc1nn(C)c(=O)c(-c2c(C)ccc3ccccc23)c1O", "foxtail, green (green foxtail, Setaria viridis)", 65],
  ["CC(=O)Oc1c(C)nn(C)c(=O)c1-c1c(C)cc(C)c2ccccc12", "foxtail, green (green foxtail, Setaria viridis)", 100]
]}

====

Examples of compounds with documented Barnyardgrass plant response rating follow.
System: barnyardgrass (Echinochloa crus-galli)
test_summary: Test C greenhouse herbicide test, pre- and postemergence
Type: in vivo
reported_conditions: postemergence, 62 g ai/ha; scale 0 to 100, 0 no effect, 100 complete control

{"columns": ["item_smiles", "Barnyardgrass plant response rating"],
 "data": [
  ["Cc1sc2ccc(Cl)cc2c1-c1c(OS(C)(=O)=O)c(Cl)nn(C)c1=O", 35],
  ["CC(=O)Oc1c(C#N)nn(C)c(=O)c1-c1c(C)ccc2ccccc12", 85],
  ["CCC(=O)Oc1c(C)nn(C)c(=O)c1-c1c(C)sc2ccc(C)cc12", 30],
  ["CCOC(=O)Oc1c(C)nn(C)c(=O)c1-c1c(C)ccc2ccccc12", 40],
  ["COC(=O)Oc1c(C)nn(C)c(=O)c1-c1c(C)sc2c(C)cc(C)cc12", 35]
]}
